# SUBJECT OF TEST: human 11b-hsd-1 (Homo sapiens)
# Sequence (P28845 whole entry): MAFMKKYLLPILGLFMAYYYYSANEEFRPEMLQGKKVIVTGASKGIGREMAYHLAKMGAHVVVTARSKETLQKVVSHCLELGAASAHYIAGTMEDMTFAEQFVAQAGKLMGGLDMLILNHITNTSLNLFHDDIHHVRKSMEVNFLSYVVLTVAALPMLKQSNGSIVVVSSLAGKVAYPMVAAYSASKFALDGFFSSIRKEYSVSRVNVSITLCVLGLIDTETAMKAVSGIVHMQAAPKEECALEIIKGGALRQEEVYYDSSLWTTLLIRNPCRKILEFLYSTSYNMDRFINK
# RUN DESCRIPTION: Inhibition constant Ki of human 11b-hsd-1 (3H-cortisone to 3H-cortisol conversion, HPLC)
# Format: biochemical
# EXPERIMENTAL SETUP: apparent Ki; read-out: Ki app
OBSERVED PROPERTY: Ki (nM)

Answered cases to consult:
O=C(NC12CC3CC(CC(C3)C1)C2)[C@H]1[C@H]2CC[C@H](C2)N1Cc1ccc(Cl)cc1 (relative stereo) [Example 203] | 1
O=C(N[C@H]1c2ccccc2C[C@H]1O)[C@H]1COCCN1Cc1ccccc1 [Example 301] | 11.1
CC(C)CN1CCC[C@@H]1C(=O)NCC1(O)CCCC1 [Example 330] | 30
O=C(NC1CCCCC1)[C@H]1CCCN1Cc1ccccc1 [Example 282] | 2.34
O=C(NCc1ccc(Cl)cc1)[C@H]1CCCN1CC1CCCC1 [Example 227] | 36

1. COc1cccc(CNC(=O)[C@H]2CCCN2CC(C)C)c1 [Example 260]
2. O=C(NCc1ccc(F)cc1)[C@H]1CCCN1Cc1ccccc1Cl [Example 232]
Kindly identify the item with the lower Ki figure among these two: 1 and 2 Indicate which entry you chose by stating its label.
1

1. CC(C)CN1CCC[C@@H]1C(=O)NCc1ccc(F)cc1 [Example 222]
2. CC(C)CN1CSC[C@@H]1C(=O)NC12CC3CC(CC(C3)C1)C2 [Example 208]
Returns the identifier with the smallest measured Ki among 1 and 2 . I would appreciate it if you answered with the label of your choice.
2

1. CCC1CCCCN1C(=O)[C@H]1CSCN1CC(C)C (some centres unmarked) [Example 200]
2. O=C(NCc1ccc(F)cc1)[C@H]1COCCN1Cc1ccccc1 [Example 274]
Look at 1 and 2 . Which one has the lower recorded Ki number? Which one? Tell me its label.
2
(2: 2.6 nM, 1: 36 nM)

I. CN(C(=O)[C@@H]1CSCN1Cc1ccc(Cl)cc1)C1CCCCC1 [Example 192]
II. CC(C)CN1CSC[C@@H]1C(=O)N(C)C1CCCCC1 [Example 196]
Between I and II , whose recorded Ki is greater? Write the label of whichever entry you select.
II
(II: 27 nM, I: 9.6 nM)

Value source: patent US20050261290A1
